EXPERIMENT_NOTES: clearance of mutant huntingtin inclusions, primary screen, imaging, HeLa Exon1htt(103Q)mCFP, confocal imaging (AID 853);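 further: cells exposed to compound for three days before fixation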
CONDITION_NOTES: aggregate imaging, at 1.5 µM; stronger effect = higher value, zero = plate's median compound well
Out of some 47,000 compounds screened, about 200 (0.43%) were called active. Not shown: some 1% with an inconclusive outcome. For the sample, actives were picked, then their nearest neighbours and some compounds at random.
Binned inhibition; ranges: class A = under -20%, class B = from -20% up to 10%, class C = 10% and over

Assign a category based on measured inhibition for COc1ccc(Oc2coc3cc(OC(=O)c4cncc(Br)c4)ccc3c2=O)cc1 and give only the class name. class C

Please do the same for Cc1cc2cc3c(cc2nc1SCC(=O)Nc1c(C)cccc1C)CCC3 as well. class C

Param item: COC(=O)c1cccc(NC(=O)CSc2nc(C)cc(=O)[nH]2)c1 class C

Repeat for the following molecule: CC(=O)NC(C)c1nc2ccccc2n1Cc1ccccc1F (configuration not stated) class C

What do you get for O=c1[nH]c2c(c(=O)n1Cc1ccccc1)CCC2 ? class C

Please give the result for COc1ccc(CNC(=O)C2CCC(CNc3c(N4CCOCC4)c(=O)c3=O)CC2)cc1 (configuration not stated) too. class C

Same read-out for O=C(CSc1nnc(-c2cccs2)n1Cc1ccccc1)N1CCc2ccccc2C1 ? class A

Same thing, different molecule: C=CCn1c(C(C)NC(=O)CC)nc2ccccc21 (configuration not stated) class A

Please give the result for CCCCCCC12CCC(C(=O)O)(CC1)CC2 too. class B

Another: CC(C)c1nc(N2CCOCC2)c(C#N)c2c1COC(C)(C)C2 class C

Follow-up entry: CCOC(=O)C(C)Oc1cccc2c(=O)n(CC(=O)N3CCc4ccccc43)ccc12 (configuration not stated) class A

COc1ccc(NC(=O)COC(=O)Cn2c(C)nc3ccccc32)cc1OC ? class A

Thanks! And CCCCNC(=O)OC(C)CNC(=O)OC (configuration not stated) ? class C

Now this one: CCOC(=O)C1CCN(Cc2coc3ccc(Cl)cc3c2=O)CC1 class B

Please answer likewise for Cn1sc(NC(=O)c2ccccc2)nc1=O class B

Then what about the molecule O=C(NC1(C(F)(F)F)NC(=O)N(Cc2cccnc2)C1=O)c1ccccc1Cl (configuration not stated) ? class C

Next entry: Cc1c(CN2CCC(C)CC2)c(=O)n(-c2ccccc2)n1C class A

Also, Cc1cc(Cl)c(S(=O)(=O)N(C)C)cc1OCC(N)=O please. class B

Entry to check: C=CCn1c(-c2ccc3[nH]c(C)c(C)c3c2)n[nH]c1=S class A

Likewise for CC1=C(C(N)=O)C(c2sccc2C)n2nnnc2N1 (configuration not stated) ? class A

// repeat for COc1ccc(NC(=O)CCN2CCCC2)c(OC)c1 and report class C

Thanks! And COC(=O)C1C(=O)NCC1c1ccc(OC)cc1 (configuration not stated) ? class C

Request: Cc1cc(C)cc(NC(=O)c2cccc(NC(=O)C3C4CC5OC(=O)C3C5C4)c2)c1 (configuration not stated) class A

Follow-up item: CC1(C)CCc2nc(SCc3ccccc3)c(C#N)cc2C1 class A

Ok, now CC1=CC(C)(C)N(C(=O)CSc2nccn2C)c2cc(C)ccc21 class C

Proceed to Cc1nc2nc(C)c(CCC(=O)N3CCN(c4ccccc4)CC3)c(C)n2n1 class A

Record: O=c1c2ccccc2nc2n1C(CSCc1ccccc1)CS2 (configuration not stated) class B

Follow-up item: O=C(CSCc1ccc(Cl)cc1)N1CCCCC1 class A

Lookup CCS(=O)(=O)n1nc(-c2ccccc2)nc1SCc1ccccc1 class A

Param item: Cc1cc(-c2ccccc2)nc(N2CCC(C(=O)NC34CC5CC(CC(C5)C3)C4)CC2)n1 class C

Another molecule to check: O=C(NCCCNCc1ccccc1)c1ccc(/C=N/O)nc1 class B

Follow-up entry: Cc1ccccc1CS(=O)(=O)CC1(O)CCN(C(=O)c2cccc(C(F)(F)F)c2)CC1 class C

Quick one: CCOC(=O)Cc1csc(NC(=O)CSc2nnc(-c3cccnc3)n2Cc2ccco2)n1 class B

What do you have for c1ccc(CSc2nnc(-c3ccco3)n2Cc2ccccc2)cc1 ? class B

ONC(=Nc1ccc(Cl)cc1)c1ccccc1Cl , same question. class B

How about this molecule: O=C(Oc1ccc([N+](=O)[O-])cc1)c1ccc2ccccc2n1 class C

Another molecule: COc1cccc2c(=O)n(CC(=O)N3CCCCCC3)ccc12 class A

Please answer likewise for O=C(NCCSCc1ccccc1)c1ccc(Cl)c(S(=O)(=O)N2CCOCC2)c1 class A

Here is the next molecule: CCOC(=O)Cn1c2c(c(-c3ccccc3OC)cc1=O)CCCC2 class C

Then what about the molecule CCC(=O)Nc1nc2ccccc2n1Cc1ccccc1C ? class B

How about Cc1cccc(NC(=O)Cn2cc(C(=O)c3ccco3)c3ccccc32)c1 ? class A

Follow-up entry: CC12c3ccccc3C(c3ccccc31)C1C(=O)N(Cc3cccnc3)C(=O)C12 (configuration not stated) class C
